Target: human CD33 G264A (human, UniProt P20138 18-364)
Sequence (P20138 18-364 G264A limits assumed): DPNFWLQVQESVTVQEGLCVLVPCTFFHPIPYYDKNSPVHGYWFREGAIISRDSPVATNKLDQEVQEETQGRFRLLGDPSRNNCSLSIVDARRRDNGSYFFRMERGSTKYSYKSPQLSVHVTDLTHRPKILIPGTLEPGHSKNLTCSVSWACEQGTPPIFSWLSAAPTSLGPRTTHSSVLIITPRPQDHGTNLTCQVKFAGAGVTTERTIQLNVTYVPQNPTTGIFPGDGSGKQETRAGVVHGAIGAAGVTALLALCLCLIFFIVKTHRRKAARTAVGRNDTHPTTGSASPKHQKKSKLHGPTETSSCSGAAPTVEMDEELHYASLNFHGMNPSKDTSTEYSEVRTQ
Test: alanine scan, flow cytometry, HEK293-T;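 further: antibody binding to each alanine-substituted CD33 mutant expressed transiently in HEK293-T, read as fluorescence minus background, mean of duplicates, relative to wild-type CD33 set as 100%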
Readings of Mean % WT Binding for the listed binders
measured-attribute: Mean % WT Binding (% WT binding)

| binder | endpoint-value |
| --- | --- |
| Refmab #1 (antibody, V domains shown, The alanine scan used IgG or Fab; also called hP67.6) VH: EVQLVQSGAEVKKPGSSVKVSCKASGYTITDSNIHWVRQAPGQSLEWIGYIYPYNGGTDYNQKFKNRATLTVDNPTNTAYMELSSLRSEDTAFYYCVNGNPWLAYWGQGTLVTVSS VL: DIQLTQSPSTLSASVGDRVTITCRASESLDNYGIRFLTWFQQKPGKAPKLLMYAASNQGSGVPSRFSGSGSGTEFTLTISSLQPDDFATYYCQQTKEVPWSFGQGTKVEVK | 95 |
| Refmab #3 (antibody, V domains shown, The alanine scan used IgG or Fab) VH: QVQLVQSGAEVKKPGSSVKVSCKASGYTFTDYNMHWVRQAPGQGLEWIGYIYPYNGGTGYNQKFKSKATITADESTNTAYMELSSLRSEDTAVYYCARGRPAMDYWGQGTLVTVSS VL: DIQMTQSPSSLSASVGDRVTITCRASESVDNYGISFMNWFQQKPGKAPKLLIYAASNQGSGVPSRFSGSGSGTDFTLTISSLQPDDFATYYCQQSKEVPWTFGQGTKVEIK | 89 |
| Refmab #2 (antibody, V domains shown, The alanine scan used IgG or Fab) VH: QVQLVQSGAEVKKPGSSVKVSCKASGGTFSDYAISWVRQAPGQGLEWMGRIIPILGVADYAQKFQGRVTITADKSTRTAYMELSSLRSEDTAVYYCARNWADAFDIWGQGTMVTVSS VL: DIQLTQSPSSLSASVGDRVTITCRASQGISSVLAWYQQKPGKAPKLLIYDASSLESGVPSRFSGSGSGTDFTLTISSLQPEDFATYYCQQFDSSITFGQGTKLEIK | 105 |
| Refmab #4 (antibody, V domains shown, The alanine scan used IgG or Fab) VH: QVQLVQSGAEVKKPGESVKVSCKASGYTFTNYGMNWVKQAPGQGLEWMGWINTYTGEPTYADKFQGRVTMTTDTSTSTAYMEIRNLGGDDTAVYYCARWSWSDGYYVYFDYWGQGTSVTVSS VL: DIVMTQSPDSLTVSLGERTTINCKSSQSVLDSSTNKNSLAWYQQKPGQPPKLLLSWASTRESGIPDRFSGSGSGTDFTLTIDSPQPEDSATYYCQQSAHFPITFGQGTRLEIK | 89.9 |
